Entries and their KD relative to parental chimera
SYSTEM UNDER TEST: T1, Human VSIG4-L-His (human, UniProt Q9Y279 20-283)
T1 construct: long isoform ECD with His tag; also called hVSIG4-L
T1 sequence: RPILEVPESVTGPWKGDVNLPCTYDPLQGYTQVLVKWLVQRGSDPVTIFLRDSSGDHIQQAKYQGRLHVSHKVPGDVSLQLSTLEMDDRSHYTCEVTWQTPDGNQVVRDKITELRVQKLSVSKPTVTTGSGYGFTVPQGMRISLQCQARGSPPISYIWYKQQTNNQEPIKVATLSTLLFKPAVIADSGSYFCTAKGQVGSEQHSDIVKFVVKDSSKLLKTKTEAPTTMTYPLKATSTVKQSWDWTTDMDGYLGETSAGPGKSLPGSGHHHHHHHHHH
PROCEDURE TEXT: BLI, IgG on AHC sensor, antigen 100 nM
Your answer should be a plain number; it is taken to be in fold.

Exercise: Recorded KD relative to parental chimera for h14D12.B humanized IgG4 (S228P) kappa (antibody, V domains shown) VH: QIQLVQSGAEVKKPGASVKVSCKASGYTFTNYGMNWVRQAPGQGLEWMGLINTYTGEPTYADKFQGRVTMTLDTSTSTAYMELSSLRSEDTAVYYCARERIYGYLHYFDYWGQGTTVTVSS VL: DVVMTQSPDSLAVSLGERATINCKASQSVDYDGDSYMNWYQQKPGQPPKLLIYAASNLESGVPDRFSGSGSGTDFTLTISSLQAEDVAVYYCQQSNEDPRTFGGGTKLEIKR , please?
Solution: 1

Exercise: Recorded KD relative to parental chimera for h14D12.F humanized IgG4 (S228P) kappa (antibody, V domains shown) VH: QIQLVQSGAEVKKPGASVKVSCKASGYTFTNYGMNWVRQAPGQGLEWMGLINTYTGEPTYADKFQGRVTMTLDTSTSTAYMELSSLRSEDTAVYYCARERIYGYLHYFDYWGQGTTVTVSS VL: DVQMTQSPSSLSASVGDRVTITCRASQSVDYDGDSYMNWYQQKPGKAPKLLIYAASNLESGVPSRFSGSGSGTDFTLTISSLQPEDFATYYCQQSNEDPRTFGGGTKLEIKR , please?
Solution: 0.8
